Molecular target: BRD4 (Homo sapiens, UniProt O60885)
Construct: HEK293 containing a HiBit insertion for BRD4; endogenous in cells; host or cells: HEK293 with a HiBiT insertion for BRD4
Assay: Assay 1 - Degradation of HiBit-BRD4 in HEK293
Type: cell-based
Conditions: HiBit-BRD4 in HEK293, 6 h treatment

{"columns": ["Compound", "Target desc", "DC50"],
 "data": [
  ["COc1ccc([C@@H]2CN(C(=O)/C(C#N)=C/c3ccn(C)n3)C[C@H]2C(=O)NCCOCCOCCOCCOCCOCCNC(=O)c2ccc(-c3ccc4c(c3)[C@H](Nc3ccc(Cl)cc3)C[C@H](C)N4C(C)=O)cc2)cc1 [Example 15ab]", "BRD4 (Homo sapiens, UniProt O60885)", "25 to 200 nM"],
  ["CC(=O)N1c2ccc(-c3ccc(C(=O)NCCOCCOCCOCCOCCOCCNC(=O)C4CC(c5ccccc5)CN(C(=O)/C(C#N)=C/C(C)(C)C)C4)cc3)cc2[C@H](Nc2ccc(Cl)cc2)C[C@@H]1C (stereo partly shown) [Example 13aa]", "BRD4 (Homo sapiens, UniProt O60885)", "> 200 nM"],
  ["CC(=O)N1c2ccc(-c3ccc(C(=O)NCCOCCOCCOCCOCCOCCNC(=O)[C@@H]4CN(C(=O)/C(C#N)=C/c5ccn(C)n5)C[C@H]4C(C)C)cc3)cc2[C@H](Nc2ccc(Cl)cc2)C[C@@H]1C [Example 15h]", "BRD4 (Homo sapiens, UniProt O60885)", "25 to 200 nM"],
  ["CC(=O)N1c2ccc(-c3ccc(C(=O)NCCOCCOCCOCCOCCOCCNC(=O)[C@@H]4CN(C(=O)/C(C#N)=C/c5nccs5)C[C@H]4c4ccccc4)cc3)cc2[C@H](Nc2ccc(Cl)cc2)C[C@@H]1C [Example 15u]", "BRD4 (Homo sapiens, UniProt O60885)", "25 to 200 nM"]
]}
